Experiment: S16 Schwann cell PMP22 intronic element firefly luciferase assay (AID 624032); further: nearly all actives have a fitted effect of over 30% in size
Settings: S16 rat Schwann cells, PMP22 element FLuc, 24 h; series mostly up to 57.5 µM
Inconclusive results are not listed. The source made the active and inactive calls. The call rests on the fitted dose curve; in most records, active means well fitted inhibition curve with a large enough effect; inconclusive means small, poorly fitted or top-dose-only effect; inactive means no such curve, though single readings can be large or run the other way.
Mark one answer only. Choices: active, inactive

Some solved entries appear below for comparison.
>  <Molecule>
Oc1ccc(OCc2ccccc2)cc1

>  <Group>
inactive

$$$$
>  <Molecule>
CCN(CC)C(=S)SSC(=S)N(CC)CC

>  <Group>
active

$$$$

Input line: Name the outcome recorded for `CCC[C@@H]1C[C@@H](C(=O)N[C@@H]([C@H]2O[C@H](SC)[C@H](O)[C@@H](O)[C@H]2O)[C@@H](C)O)N(C)C1` in the assay.
Output line: inactive

Input line: Name the outcome recorded for `Nc1cc(C(Cl)=C(Cl)Cl)c(S(N)(=O)=O)cc1S(N)(=O)=O` in the assay.
Output line: inactive

Input line: Name the outcome recorded for `c1ccc2[nH]c(-c3cscn3)nc2c1` in the assay.
Output line: inactive

Input line: Name the outcome recorded for CCC1=C(C)CN(C(=O)NCCc2ccc(S(=O)(=O)NC(=O)NC3CCC(C)CC3)cc2)C1=O (stereo unspecified) in the assay.
Output line: active

Input line: Name the outcome recorded for `Cc1cc(=O)oc2cc(O)ccc12` in the assay.
Output line: inactive

###

Biological target: Glutathione peroxidase 1 (Homo sapiens)
Assay: Primary qHTS Assay for Inhibitors of Recombinant Selenoprotein Glutathione Peroxidase 1 (GPX1) (AID 1845191); further: nearly all actives have a fitted effect of over 65% in size
Conditions: recombinant GPX1, GR-coupled NADPH fluorescence, 15 min; series mostly up to 48.8 µM
Records with an inconclusive call do not appear. Calls of active or inactive are those of the source. Calls follow the shape of the dose curve; as a rule, active = well fitted inhibition curve with a large enough effect; inconclusive = small, poorly fitted or top-dose-only effect; inactive = flat fitted curve, though single readings scatter.
Mark one answer only. Choices: 1.0 for active, 0.0 for inactive

Some solved entries appear below for comparison.
>  <Compound>
O=C(O)c1cc(=O)c2c(OCC(O)COc3cccc4oc(C(=O)O)cc(=O)c34)cccc2o1

>  <Tested Target>
Glutathione peroxidase 1 (Homo sapiens)

>  <Group>
0.0

$$$$
>  <Compound>
CS(=O)(=O)OCCCCOS(C)(=O)=O

>  <Tested Target>
Glutathione peroxidase 1 (Homo sapiens)

>  <Group>
0.0

$$$$

Input line: Name the outcome recorded for `CC(=O)NC[C@H]1CN(c2ccc(N3CCOCC3)c(F)c2)C(=O)O1` in the assay.
Output line: 0.0

Input line: Name the outcome recorded for `O=c1oc2cc(O)ccc2s1` in the assay.
Output line: 0.0

Input line: Name the outcome recorded for COC(=O)C1=C(C)NC(C)=C(C(=O)OC(C)C)C1c1cccc2nonc12 (centres undefined) in the assay.
Output line: 0.0

Input line: Name the outcome recorded for `COc1c(O)cc2c(c1O)[C@@H]1O[C@H](CO)[C@@H](O)[C@H](O)[C@H]1OC2=O` in the assay.
Output line: 0.0

Input line: Name the outcome recorded for `CC(C)[C@H](N)C(=O)OCCOCn1cnc2c(=O)[nH]c(N)nc21` in the assay.
Output line: 0.0

Input line: Name the outcome recorded for `CCOC(=O)C1=C[C@@H](OC(CC)CC)[C@H](NC(C)=O)[C@@H](N)C1` in the assay.
Output line: 0.0

Input line: Name the outcome recorded for `O=C1c2ccccc2-c2n[nH]c3cccc1c23` in the assay.
Output line: 0.0

Input line: Name the outcome recorded for `Oc1ccc(-c2nc(-c3ccc(F)cc3)c(-c3ccncc3)[nH]2)cc1` in the assay.
Output line: 0.0

Input line: Name the outcome recorded for `CN(C)c1ccc(O)c2c1C[C@H]1C[C@H]3[C@H](N(C)C)C(=O)C(C(N)=O)=C(O)[C@@]3(O)C(=O)C1=C2O` in the assay.
Output line: 0.0

Input line: Name the outcome recorded for `Cc1cc2c(s1)Nc1ccccc1N=C2N1CCN(C)CC1` in the assay.
Output line: 1.0

Input line: Name the outcome recorded for `CN(C)[C@@H](CCOc1cccc2ccccc12)c1ccccc1` in the assay.
Output line: 0.0

Input line: Name the outcome recorded for CCCS(=O)c1ccc2nc(NC(=O)OC)[nH]c2c1 (centres undefined) in the assay.
Output line: 0.0

Input line: Name the outcome recorded for `O=C(CCc1ccc(O)cc1)c1c(O)cc(O)cc1O` in the assay.
Output line: 0.0

Input line: Name the outcome recorded for `NNc1nncc2ccccc12` in the assay.
Output line: 0.0

Input line: Name the outcome recorded for Cc1ncc([N+](=O)[O-])n1CC(C)O (centres undefined) in the assay.
Output line: 0.0

Input line: Name the outcome recorded for `Cc1cccc(C#Cc2ccccc2)n1` in the assay.
Output line: 0.0

Input line: Name the outcome recorded for Cc1ccc(S(=O)(=O)NC(=O)NN2CC3CCCC3C2)cc1 (centres undefined) in the assay.
Output line: 0.0
